Reference source: patent US20210032312A1

- system.name: T1, human CD8A-Fc (recombinant human CD8 alpha fused to Fc fragment of human IgG1) (human, UniProt P01732 22-182, limits assumed)
- T1 construct: SPR ligand, captured by goat anti-human Fc; also called hCD8A-Fc; recombinant CD8 alpha; not shown: linker with flag (and polyhistidine) tag and Fc fragment of human IgG1; depends on which of the two constructs was used
- test.protocol: SPR, dissociation rate on recombinant CD8 alpha
endpoint.name: koff (s⁻¹)

binder	result.units	obs.value
CD8S371 (designed binder, Printed as W48Y mutant of P282DR9P1359_F5; the entry holds the mutation) LPAPKNLVVSRVTEDSARLSWTAPDAAFDSFQIAYPEYPPPGEAIVLTVPGSERSYDLTGLKPGTEYFVIIQGVKGGVESWPLSAIFTT	s⁻¹	0.000194

[P] CD8S372 (designed binder, Printed as W48L mutant of P282DR9P1359_F5; the entry holds the mutation) LPAPKNLVVSRVTEDSARLSWTAPDAAFDSFQIAYPELPPPGEAIVLTVPGSERSYDLTGLKPGTEYFVIIQGVKGGVESWPLSAIFTT
[Q] CD8S390 (designed binder, W68Y mutant of P282ER9P1360_C8; the entry holds the mutation) LPAPKNLVVSRVTEDSARLSWTAPDAAFDSFGILYYEPVDSGEAITLPVPGSERSYDLTGLKPGTEYYVVITGVKGGAPSTPLGTIFTT
[R] CD8S378 (designed binder, D43E mutant of P282DR9P1359_G7; the entry holds the mutation) LPAPKNLVVSRVTEDSARLSWTAPDAAFDSFAITYIEKEHIEEGEAIVLTVPGSERSYDLTGLKPGTEYWVPIWGVKGGANSWPLSAIFTT
[S] CD8S400 (designed binder, W38L mutant of P282DR9P1359_C5; the entry holds the mutation) LPAPKNLVVSRVTEDSARLSWTAPDAAFDSFWITYPELPDPGGEAIVLTVPGSERSYDLTGLKPGTEYFVVIYGVKGGEIYSPLSAIFTT
Prompt line: # sort list by recorded koff, greatest to least Field: ranking. Enter the labels in the order requested.
Response line: S, P, Q, R
(S: 0.0226 s⁻¹, P: 0.000571 s⁻¹, Q: 0.000152 s⁻¹, R: 5.8e-05 s⁻¹)
